Molecular target: T1, 4H3632-bN
T1 chain: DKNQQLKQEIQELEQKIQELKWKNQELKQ
Test: two-hybrid library CCNG1;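 further: natural log of median RNA to DNA barcode read ratio; higher means stronger binding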
attribute_measured: interaction score

[
  {
    "binder": "DEIQQLEQKIQELKQENQELEWKIQELKQ [4H342-bN]",
    "result_number": 0.807
  },
  {
    "binder": "DKIQQLKQKNQELKQKNQELKWKIQELKQ [4H3070-bN]",
    "result_number": -1.38
  },
  {
    "binder": "DKIQQLKQENQELEQEIQELEWENQELEQ [4H2691-bN]",
    "result_number": -1.21
  }
]

[I] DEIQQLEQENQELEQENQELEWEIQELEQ [4H145-bN]
[II] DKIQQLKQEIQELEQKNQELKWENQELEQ [4H2619-bN]
[III] DENQQLEQKIQELKQEIQELEWENQELEQ [4H1347-bN]
[IV] DKNQQLKQEIQELEQKIQELKWKNQELKQ [4H3632-bN]
Asked: # ascending order, key=interaction score Sort and list the labels as requested.
Given back: I, II, IV, III
